# TARGET_OF_ASSAY: Adenosine A2 receptor (Rattus norvegicus, UniProt P29276+P30543)
Classify by EC50. Ranges: low = under 300 nM, mid = from 300 nM up to 500 nM, high = 500 nM and over

COMPOUND: CCNC(=O)[C@H]1O[C@@H](n2cnc3c(N)nc(C#CCO)nc32)[C@H](O)[C@@H]1O
ANSWER_LABEL: mid
//
COMPOUND: CCCCC#Cc1nc(N)c2ncn([C@@H]3O[C@H](C(=O)NCC)[C@@H](O)[C@H]3O)c2n1
ANSWER_LABEL: high
//
COMPOUND: CCNC(=O)[C@H]1O[C@@H](n2cnc3c(N)nc(C#CC4CCCCC4)nc32)[C@H](O)[C@@H]1O
ANSWER_LABEL: mid
//
COMPOUND: CCNC(=O)[C@H]1O[C@@H](n2cnc3c(N)nc(C#CCCCCO)nc32)[C@H](O)[C@@H]1O
ANSWER_LABEL: mid
//
COMPOUND: CCNC(=O)[C@H]1O[C@@H](n2cnc3c(N)nc(C#CCCCCl)nc32)[C@H](O)[C@@H]1O
ANSWER_LABEL: high
//
COMPOUND: CCNC(=O)[C@H]1O[C@@H](n2cnc3c(N)nc(C#CC(C)O)nc32)[C@H](O)[C@@H]1O (stereo partly drawn)
ANSWER_LABEL: high
//
COMPOUND: CCNC(=O)[C@H]1O[C@@H](n2cnc3c(N)nc(C#CC(O)c4ccccc4)nc32)[C@H](O)[C@@H]1O (stereo partly drawn)
ANSWER_LABEL: low
//
COMPOUND: C#Cc1nc(N)c2ncn([C@@H]3O[C@H](C(=O)NCC)[C@@H](O)[C@H]3O)c2n1
ANSWER_LABEL: mid
//
COMPOUND: CCNC(=O)[C@H]1O[C@@H](n2cnc3c(N)nc(C#CCN)nc32)[C@H](O)[C@@H]1O
ANSWER_LABEL: high
//
COMPOUND: CCNC(=O)[C@H]1O[C@@H](n2cnc3c(N)nc(C#CCCO)nc32)[C@H](O)[C@@H]1O
ANSWER_LABEL: low
//
COMPOUND: CCNC(=O)[C@H]1O[C@@H](n2cnc3c(N)nc(C#CC(O)CC)nc32)[C@H](O)[C@@H]1O (stereo partly drawn)
ANSWER_LABEL: low
//
COMPOUND: CCNC(=O)[C@H]1O[C@@H](n2cnc3c(N)nc(C#CC(C)(O)c4ccccc4)nc32)[C@H](O)[C@@H]1O (stereo partly drawn)
ANSWER_LABEL: mid
